Data provenance: patent US20070142437A1

- testedOn: CDK2 (Homo sapiens, UniProt P24941)
pIC50: −log10 of the molar value.
reportedEndpoint: pIC50

# count of solved cases: 4
>>> df
                             smilesnotation                             testedon  reportedendpoint  observedresult
0  CN1CCN(c2ccc(Nc3ncc(-c4cccc(OC5CCCC5)c4)o3)cc2F)CC1  CDK2 (Homo sapiens, UniProt P24941)             pIC50          > 7.00
1  CCN(CC)c1ccc(Nc2ncc(-c3cccc(OC4CCCC4)c3)o2)cn1  CDK2 (Homo sapiens, UniProt P24941)             pIC50          > 6.00
2  CN1CCN(c2ccc(Nc3ncc(-c4cccc(OC5CCCCC5)c4)o3)cc2)CC1  CDK2 (Homo sapiens, UniProt P24941)             pIC50          > 7.00
3  COc1cccc(-c2cnc(Nc3ccc(N4CCN(C)CC4)cc3C)o2)c1  CDK2 (Homo sapiens, UniProt P24941)             pIC50          > 5.00

Switching to the query record.
Please state recorded pIC50 (tested on CDK2 (Homo sapiens, UniProt P24941)) of COc1cccc(-c2cnc(Nc3ccc(CN4CCCC4)cc3)o2)c1 > 6.00
